- System: Plasmodium falciparum
- MEASUREMENT NOTES: Confirmatory screen in NF54 pLDH assay, in single point, at 2uM, 72h
- Assay type: functional, Erythrocyte
- CONDITION LABEL: timepoint 72 hour
Hit rate of the full screen: of about 4,800 compounds, about 410 (8.5%) showed an effect of 50% or more. The entries come from a sample that favours strong results as a whole.

# STRUCTURE AS SMILES, % Inhibition
data = [
    ("Cn1c(C(C)(C)C)nc2cc(NC3CCC4(CC3)OCCO4)ccc21", "-16%"),
    ("CCn1c(C)c(C)c2cc(C(=O)Nc3cccc(S(=O)(=O)N4CCOCC4)c3)ccc21", "4%"),
    ("O=C(c1cc2nc(-c3ccc(Cl)c(Cl)c3)cc(C(F)(F)F)n2n1)N1CCN(c2ccccc2)CC1", "-7%"),
    ("CN(C)Cc1ccc(NC(=O)c2cc(F)cc3c(=O)c4cc(F)ccc4[nH]c23)cc1", "95%"),
    ("CC(=O)Nc1cccc(C#CCN2CCN(c3ccc(F)cc3)CC2)c1", "13%"),
]

---

Attribute: % Inhibition
- Tested on: Plasmodium falciparum
- MEASUREMENT NOTES: Confirmatory screen in NF54 pLDH assay, in single point, at 2uM, 72h
- Format: functional, Erythrocyte
- CONDITION LABEL: timepoint 72 hour
In all, about 4,800 compounds went through this assay and about 410 (8.5%) showed an effect of 50% or more. Shown is part of a subset that was picked to be rich in strong results.
MEASURED ATTRIBUTE: % Inhibition (%)

# COMPOUND, MEASURED ATTRIBUTE, TEST RESULT
data = [
    ("CCOC(=O)C(C)NC(=O)C(C)NC(=O)c1ccc(F)c(C#N)c1 (configuration not stated)", "% Inhibition", 7),
    ("Cc1ccc2nc(C3CC3)cc(C(=O)N3C[C@@H](O)C[C@H]3CO)c2c1", "% Inhibition", -1),
    ("COc1ccccc1Cc1nnc2n1CCCC2", "% Inhibition", 8),
    ("Cc1cc(C)n(-c2ccc(N3CC4CCC3C4)nc2)n1 (configuration not stated)", "% Inhibition", -2),
    ("CN1CCN(C2(CNc3ccnc4ccccc34)CCCC2)CC1", "% Inhibition", 98),
    ("CC(C)[C@@H]1CC[C@H](C)C[C@H]1OC(=O)Cn1cc(-c2ccc(Cl)cc2)[n+]2c1CCC2", "% Inhibition", 75),
    ("Cn1c(=O)c2c(nc3nc(N4CCOCC4)n(CC(=O)c4ccc(Cl)cc4)n32)n(C)c1=O", "% Inhibition", 0),
    ("Cc1nn(C)c(Cl)c1CNC[C@@H](c1ccsc1)N(C)C", "% Inhibition", 9),
    ("COc1ccc(-n2ncc3c(NCCNC(=O)c4ccccc4Cl)nc(C)nc32)cc1", "% Inhibition", -27),
    ("CC(C)c1ccc(Oc2cnn(-c3cccc(Cl)c3)c(=O)c2Nc2cccc(C(=O)NC3CC3)c2)cc1", "% Inhibition", 54),
    ("Cc1ccc(NC(=O)Cn2c(C)nc3c(-c4ccccn4)nsc3c2=O)c(C)c1", "% Inhibition", 12),
    ("CCn1nc(-n2cnnc2)c(NS(=O)(=O)c2ccc(Br)cc2C)c1C", "% Inhibition", 12),
    ("Cc1cccc(C)c1OCC(=O)Nc1ccc(-c2nc3cc4ccccc4cc3[nH]2)cc1", "% Inhibition", 18),
    ("Cc1ncsc1COC(=O)c1ccnc(N(C)C)c1", "% Inhibition", 10),
    ("c1ccc2cc(-c3ccc4ccccc4n3)ccc2c1", "% Inhibition", 16),
    ("FC(F)(F)c1nnc(NCc2cncs2)s1", "% Inhibition", -7),
    ("Cc1ccc(NC(=O)c2c(C)nc3sc(C(=O)NCc4ccccc4)c(N)c3c2-c2cccs2)c(C)c1", "% Inhibition", 11),
    ("Cc1cccc(NC(=O)CCC(=O)OCC(F)(F)F)c1C", "% Inhibition", -1),
    ("CCC(C)(CC)[C@@](O)(C#CC[N+]1(Cc2ccccc2)CCCCC1)c1ccccc1", "% Inhibition", 22),
    ("Cn1cc2c(n1)CCC[C@@H]2NC(=O)c1cccc(C(=O)NC2CC2)c1", "% Inhibition", 0),
    ("Cc1ccc2nc3c(c(N)c2c1)CCCCN3C", "% Inhibition", -20),
    ("CC(CC1OCC(C[N+]2(Cc3ccccc3)CCCCC2)O1)CC(C)(C)C (configuration not stated)", "% Inhibition", 56),
]

---

- Test system: Plasmodium falciparum
- MEASUREMENT NOTES: Confirmatory screen in NF54 pLDH assay, in single point, at 2uM, 72h
- Assay type: functional, Erythrocyte
- CONDITION LABEL: timepoint 72 hour
Out of some 4,800 compounds screened, about 410 (8.5%) showed an effect of 50% or more. Only a selection was taken, and strong results are over-represented in it overall.

# STRUCTURE AS SMILES, % Inhibition
measured = [
    ("CCOc1c(CNC[C@H](C)O)cc(Br)cc1OC", "5%"),
    ("Fc1ccc(-c2cc3c(N4CCCCC4)nccn3n2)cc1", "12%"),
    ("O=C(c1[nH]nc(C2CC2)c1Br)N1CCC12CCC2", "-3%"),
    ("CCC(C(=O)Nc1cc(C)on1)(C(F)(F)F)C(F)(F)F", "9%"),
    ("Cc1cc(OCc2ccc(C(=O)Nc3ncn(Cc4c(F)cccc4Cl)n3)o2)ccc1Cl", "0%"),
    ("Cc1ccc(CNC2CCN(C)CC2)c(OCc2ccco2)c1", "3%"),
    ("CCCCC(=O)N1CCc2[nH]nc(C(=O)NCCc3ccc(OC)cc3)c2C1", "2%"),
    ("C[C@H](Nc1ccc(N2CCOCC2)nc1)c1cccc(CO)c1", "11%"),
    ("O=C(C[C@H]1CCC(=O)N(Cc2ccccc2)CC1)NC1CCN(Cc2ccccc2)CC1", "6%"),
    ("Cc1cc(N2C[C@H]3CC[C@@H](C2)[C@H]3N(C)C)nc(Nc2cccc(O)c2)n1", "86%"),
    ("Cc1cc(Cl)ccc1S(=O)(=O)N1CCc2nnc([C@H]3CCN(C(C)C)C3)n2CC1", "10%"),
]

---

- Test system: Plasmodium falciparum
- MEASUREMENT NOTES: Confirmatory screen in NF54 pLDH assay, in single point, at 2uM, 72h
- Type: functional, Erythrocyte
- CONDITION LABEL: timepoint 72 hour
Hit rate of the full screen: of about 4,800 compounds, about 410 (8.5%) showed an effect of 50% or more. Only a selection was taken, and strong results are over-represented in it overall.
MEASURED ATTRIBUTE: % Inhibition (%)

# STRUCTURE AS SMILES, SCALE UNIT, TEST RESULT
data = [
    ("O=C(Nc1ccc(NC2CCOCC2)cc1)c1cc(F)c(O)c(F)c1", "%", -10),
    ("CCc1cc(C(=O)N2CCC[C@H](C)C2)c2c(C3CC3)nn(-c3ccccc3)c2n1", "%", 4),
    ("COc1cccc(-c2cc(C(=O)Nc3ccc(F)c(Cl)c3)c3c(C)nn(C)c3n2)c1", "%", 4),
    ("Cc1ccc(CC[C@H]2Nc3ccccc3C(c3ccccc3)(c3ccccc3)O2)o1", "%", 66),
    ("Cc1noc(C)c1CN1C[C@@H]2Oc3cc(F)ccc3C(=O)N(C)[C@@H]2C1", "%", 97),
    ("O=C(Nc1nnc(C2CC2)s1)[C@@H]1Cc2ccccc2O1", "%", 5),
    ("O=c1nc2n(nc1-c1ccccc1)C1(CCC1)Nc1ccccc1-2", "%", 60),
    ("Cc1nn(C)c(C)c1-c1cc(C(=O)Nc2cc(F)ccc2F)c2c(C)nn(C)c2n1", "%", 2),
    ("COc1cccc(S(=O)(=O)N(C)[C@H]2CCc3n[nH]c(=O)n3CC2)c1", "%", 1),
    ("COc1ccc(C)cc1NC(=O)N1CC(c2nc(C(C)C)nn2C)C1", "%", 1),
]

---

- Tested on: Plasmodium falciparum
- MEASUREMENT NOTES: Confirmatory screen in NF54 pLDH assay, in single point, at 2uM, 72h
- Type: functional, Erythrocyte
- CONDITION LABEL: timepoint 72 hour
The whole screen tested about 4,800 compounds, of which about 410 (8.5%) showed an effect of 50% or more. The full list was thinned out, with strong results kept by preference.
Overview of reported % Inhibition across a group of molecules:

# STRUCTURE AS SMILES, % Inhibition [%]
records = [
    ("Cc1ccc(N2C(=O)C[C@]3(CC3(c3ccccc3)c3ccccc3)C2=O)cc1", 6),
    ("O=C(Nc1ccc(N2CCCCCC2)cc1C(=O)O)c1ccc(Cl)cc1", 9),
    ("COc1ccc(C(=O)CN2C=CCC=C2c2nc(-c3ccc(Cl)cc3)cs2)cc1", 73),
    ("Cc1nc2nnnn2c(C)c1C/C=C/c1ccccc1", 8),
    ("CS(=O)(=O)CC1(CC(=O)N[C@H](c2ccccc2)C2CCC2)CC1", 11),
    ("Cc1nnc(-c2cnn(C)c2N)n1C[C@H]1CCCO1", 9),
    ("CCc1ccc(C2=Nc3cccnc3N(CC(=O)Nc3c(C)cc(C)cc3C)C(=O)C2)cc1", 2),
    ("CO[C@H]1CCOC2(CCN(C(=O)c3ccccc3F)CC2)C1", 9),
    ("COC(=O)c1ncn2c1C(=O)N(Cc1ccccc1OC)[C@](C)(C(=O)NC1CCCCC1)C2", 11),
    ("CO[C@@H](CNc1nc(C)c(S(N)(=O)=O)s1)c1ccc(F)cc1", -17),
]

From: ChEMBL document CHEMBL4888484
